Procedure text: chemical genetic growth profiling, strain panel (AID 1159580);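 further: tested at 20 µM; growth read once vehicle control cultures reached saturation at 30 °C; 1 = growth at the plate median or of vehicle wells; lower values mean less growth of the strain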
Condition label: S. cerevisiae deletion strains, growth OD, locus YHR079C, strain IRE1, active compounds read low
The campaign covered roughly 5,500 compounds. About 2,000 (36%) were called active. Inconclusive results (about 18%) are left out. This is one part of the list.
Quick reference: normalized growth of the listed items.

Compound: C/C=C1\[C@H]2C=C(C)C[C@]1(N)c1ccc(=O)[nH]c1C2
normalized growth: 1.01
//
Compound: N#Cc1c2ccccc2nc2ccccc12
normalized growth: 0.599
//
Compound: CO[C@@]12[C@@H]3NC3CN1C1=C(C(=O)C(N)=C(C)C1=O)[C@@H]2COC(N)=O (stereo partly drawn)
normalized growth: 0.957
